- Test system: Ubiquitin carboxyl-terminal hydrolase 1 (Homo sapiens) (UniProt O94782)
- Sequence (O94782 whole entry, looked up): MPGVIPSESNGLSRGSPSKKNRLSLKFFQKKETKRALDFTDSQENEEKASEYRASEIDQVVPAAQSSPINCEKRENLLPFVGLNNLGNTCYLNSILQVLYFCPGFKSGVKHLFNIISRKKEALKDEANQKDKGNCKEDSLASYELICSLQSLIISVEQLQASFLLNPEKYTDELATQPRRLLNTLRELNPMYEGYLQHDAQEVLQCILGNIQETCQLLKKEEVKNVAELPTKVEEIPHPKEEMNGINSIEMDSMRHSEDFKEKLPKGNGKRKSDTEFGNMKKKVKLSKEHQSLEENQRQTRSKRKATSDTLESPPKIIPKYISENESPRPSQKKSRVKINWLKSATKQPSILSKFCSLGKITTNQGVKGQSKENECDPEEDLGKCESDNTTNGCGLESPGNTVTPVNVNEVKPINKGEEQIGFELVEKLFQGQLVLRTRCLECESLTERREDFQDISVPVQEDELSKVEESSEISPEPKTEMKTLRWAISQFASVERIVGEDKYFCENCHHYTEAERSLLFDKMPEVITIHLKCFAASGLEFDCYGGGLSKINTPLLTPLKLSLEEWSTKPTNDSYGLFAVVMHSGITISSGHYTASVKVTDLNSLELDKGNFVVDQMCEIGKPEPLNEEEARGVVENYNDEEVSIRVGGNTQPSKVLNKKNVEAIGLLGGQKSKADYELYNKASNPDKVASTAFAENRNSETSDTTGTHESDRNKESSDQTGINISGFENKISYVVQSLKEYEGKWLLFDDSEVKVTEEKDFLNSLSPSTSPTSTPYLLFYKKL
- Measurement notes: Inhibitors of USP1/UAF1: Pilot qHTS (AID 504865); also: nearly all actives have a fitted effect of over 35% in size
- Condition notes: purified USP1/UAF1, Ub-rhodamine cleavage fluorescence; series mostly up to 114 µM
Records with an inconclusive call do not appear. The source made the active and inactive calls. Calls follow the shape of the dose curve; as a rule, active = well fitted inhibition curve with a large enough effect; inconclusive = small, poorly fitted or top-dose-only effect; inactive = flat fitted curve, though single readings scatter.
Your response should consist of one outcome taken from t (active), f (inactive)

N#C/C(=C\c1ccc(O)c(O)c1)C(=O)c1ccc(O)c(O)c1	f
CCCCCC[C@@H](O)C/C=C\CCCCCCCC(=O)O	f
CN(C)c1nc(N)c(C(=O)N=C(N)N)nc1Cl	f
O=C1NC(=O)/C(=C/c2ccc(-c3ccc(F)cc3O)o2)S1	t

Hello, I am checking results. What call was entered for Oc1ccccc1O ?
f

Hello, I am checking results. What call was entered for CCCC(=O)OC[C@@H](OC(=O)CCC)[C@@H](OC(=O)CCC)[C@H](Cn1c2nc(=O)[nH]c(=O)c-2nc2cc(C)c(C)cc21)OC(=O)CCC ?
t

Hello, I am checking results. What call was entered for CCN1/C(=C/C(C)=O)Sc2ccc(OC)cc21 ?
f

Hello, I am checking results. What call was entered for CC12C(=O)OC(=O)C1(C)C1CCC2O1 (stereo unspecified) ?
f

Hello, I am checking results. What call was entered for O=[N+]([O-])c1ccc(CSc2ncnc3c2ncn3[C@@H]2O[C@H](CO)[C@@H](O)[C@H]2O)cc1 ?
f

Hello, I am checking results. What call was entered for O=C(O)[C@@H]1C[C@H](C(=O)O)N1 ?
f

Hello, I am checking results. What call was entered for CSc1ccccc1N1CCN(CCCCCC(=O)NC2CCCc3ccccc32)CC1 (stereo unspecified) ?
f
